Provide the reported growth inhibition of each item.
Tested on: SUDIPGVI (diffuse intrinsic pontine glioma line)
Test: growth inhibition (% activity, log2 RLU normalised to DMSO / staurosporine); higher = more growth inhibition
Settings: 33 µM
Number only, in %; omit the unit.

Please give measured growth inhibition of the following entry: N[C@@H](Cc1ccc(O)c(O)c1)C(=O)O
-1.98

Please give measured growth inhibition of the following entry: O=C(CCCN1CCC(O)(c2ccc(Cl)cc2)CC1)c1ccc(F)cc1
0.854

Please give measured growth inhibition of the following entry: Clc1ccc(C(Cn2ccnc2)OCc2ccc(Sc3ccccc3)cc2)c(Cl)c1 (stereo unspecified)
2.82

Please give measured growth inhibition of the following entry: Fc1ccc(C(c2ccc(F)cc2)N2CCN(C/C=C/c3ccccc3)CC2)cc1
5.18

Please give measured growth inhibition of the following entry: Nc1ccc(S(=O)(=O)Nc2nccs2)cc1
-2.69

Please give measured growth inhibition of the following entry: CC1(C)O[C@@H]2C[C@H]3[C@@H]4CCC5=CC(=O)C=C[C@]5(C)[C@H]4[C@@H](O)C[C@]3(C)[C@]2(C(=O)CO)O1
-0.194

Please give measured growth inhibition of the following entry: N#CC[C@H](C1CCCC1)n1cc(-c2ncnc3[nH]ccc23)cn1
1.18

Please give measured growth inhibition of the following entry: CC(C)C[C@H](NC(=O)[C@H](CCc1ccccc1)NC(=O)CN1CCOCC1)C(=O)N[C@@H](Cc1ccccc1)C(=O)N[C@@H](CC(C)C)C(=O)[C@@]1(C)CO1
52

Please give measured growth inhibition of the following entry: CN(C)CCCN1c2ccccc2Sc2ccc(C(F)(F)F)cc21
0.329

Please give measured growth inhibition of the following entry: c1cc(CN2CCCNCCNCCCNCC2)ccc1CN1CCCNCCNCCCNCC1
5.04

Please give measured growth inhibition of the following entry: COC(=O)Nc1nc2cc([S+]([O-])c3ccccc3)ccc2[nH]1 (stereo unspecified)
5.46

Please give measured growth inhibition of the following entry: Nc1nc2n[nH]nc2c(=O)[nH]1
1.16

Please give measured growth inhibition of the following entry: Cc1ccccc1C(=O)Nc1ccc(C(=O)N2CCCC(O)c3cc(Cl)ccc32)c(C)c1 (stereo unspecified)
3.58

Please give measured growth inhibition of the following entry: N=C(N)c1ccc(OCCCCCOc2ccc(C(=N)N)cc2)cc1
44.2

Please give measured growth inhibition of the following entry: CCCCCCCN(CC)CCCC(O)c1ccc(NS(C)(=O)=O)cc1 (stereo unspecified)
1.61

Please give measured growth inhibition of the following entry: C[C@]12C=CC(=O)N[C@@H]1CC[C@@H]1[C@@H]2CC[C@]2(C)[C@@H](C(=O)Nc3cc(C(F)(F)F)ccc3C(F)(F)F)CC[C@@H]12
-0.00919

Please give measured growth inhibition of the following entry: COc1cc2nc(N3CCN(C(=O)C4COc5ccccc5O4)CC3)nc(N)c2cc1OC (stereo unspecified)
1.52

Please give measured growth inhibition of the following entry: Clc1ccccc1C(c1ccccc1)(c1ccccc1)n1ccnc1
2.55

Please give measured growth inhibition of the following entry: N=C(N)N/N=C/c1c(Cl)cccc1Cl
3.21

Please give measured growth inhibition of the following entry: CCCCCCCCCCOc1cc2c(O)c(C(=O)OCC)cnc2cc1OCC
-8.46

Please give measured growth inhibition of the following entry: CCN1CCCC1CNC(=O)c1cc(S(N)(=O)=O)ccc1OC (stereo unspecified)
3.68

Please give measured growth inhibition of the following entry: Clc1ccc(CSC(Cn2ccnc2)c2ccc(Cl)cc2Cl)cc1 (stereo unspecified)
3.55

Please give measured growth inhibition of the following entry: CC(COc1ccccc1)N(CCCl)Cc1ccccc1 (stereo unspecified)
-7.02

Please give measured growth inhibition of the following entry: C=C1[C@H](CO)[C@@H](O)C[C@@H]1n1cnc2c(=O)[nH]c(N)nc21
0.432

Please give measured growth inhibition of the following entry: NC12CC3CC(CC(C3)C1)C2
0.782

Please give measured growth inhibition of the following entry: CC(=O)O[C@H]1CC[C@@]2(C)C(=CC[C@@H]3[C@@H]2CC[C@]2(C)C(c4cccnc4)=CC[C@@H]32)C1
-0.189

Please give measured growth inhibition of the following entry: C[C@H]1C[C@@H]2[C@H]([C@@H](O)C[C@@]3(C)[C@H]2CC[C@]3(O)C(=O)CO)[C@@]2(C)C=CC(=O)C=C12
-0.182

Please give measured growth inhibition of the following entry: CCn1cc(C(=O)O)c(=O)c2cc(F)c(N3CCNC(C)C3)c(F)c21 (stereo unspecified)
-4.26

Please give measured growth inhibition of the following entry: CC[C@]1(O)C[C@H]2CN(CCc3c([nH]c4ccccc34)[C@@](C(=O)OC)(c3cc4c(cc3OC)N(C=O)[C@H]3[C@@](O)(C(=O)OC)[C@H](OC(C)=O)[C@]5(CC)C=CCN6CC[C@]43[C@@H]65)C2)C1
38.9

Please give measured growth inhibition of the following entry: Nc1nc2c(ncn2COC(CO)CO)c(=O)[nH]1
-0.103

Please give measured growth inhibition of the following entry: O=C1[C@H](CC[C@H](O)c2ccc(F)cc2)[C@@H](c2ccc(O)cc2)N1c1ccc(F)cc1
-5.97

Please give measured growth inhibition of the following entry: c1ccc(CN(CC2=NCCN2)c2ccccc2)cc1
3.06

Please give measured growth inhibition of the following entry: C[C@@H]1O[C@@H]1P(=O)(O)O
0.0548

Please give measured growth inhibition of the following entry: CC(C(=O)O)c1ccc(-c2ccccc2)c(F)c1 (stereo unspecified)
2.75

Please give measured growth inhibition of the following entry: N[C@H](Cc1ccccc1)C(=O)O
2.63

Please give measured growth inhibition of the following entry: CCN[C@H]1C[C@H](C)S(=O)(=O)c2sc(S(N)(=O)=O)cc21
4.36

Please give measured growth inhibition of the following entry: CC(=O)NS(=O)(=O)c1ccc(NC(=O)c2ccccc2C(=O)O)cc1
-1.59

Please give measured growth inhibition of the following entry: NC(N)=Nc1nc(CSCC/C(N)=N/S(N)(=O)=O)cs1
-8.72

Please give measured growth inhibition of the following entry: CC(=O)OCC(CCn1cnc2cnc(N)nc21)COC(C)=O
-13

Please give measured growth inhibition of the following entry: COC(=O)[C@H](Cc1ccccc1)NC(=O)[C@@H](N)CC(=O)O
-1.43

Please give measured growth inhibition of the following entry: CCOC(=O)c1ccc(C#Cc2ccc3c(c2)C(C)(C)CCS3)nc1
4.1

###

Test system: SUDIPGIV (diffuse intrinsic pontine glioma line)
Assay: growth inhibition (% activity, log2 RLU normalised to DMSO / staurosporine); higher = more growth inhibition
Details: 33 µM
test.readout: growth inhibition (%)
Number only, in %; omit the unit.

Please give measured growth inhibition of the following entry: CNC(=O)c1ccc(N2C(=S)N(c3ccc(C#N)c(C(F)(F)F)c3)C(=O)C2(C)C)cc1F
1.84

Please give measured growth inhibition of the following entry: Nc1nc2n[nH]nc2c(=O)[nH]1
32.2

Please give measured growth inhibition of the following entry: CC(CN(C)C)CN1c2ccccc2CCc2ccccc21 (stereo not given)
1.48

Please give measured growth inhibition of the following entry: CC[C@H]1OC(=O)[C@H](C)[C@@H](O[C@H]2C[C@@](C)(OC)[C@@H](O)[C@H](C)O2)[C@H](C)[C@@H](O[C@@H]2O[C@H](C)C[C@H](N(C)C)[C@H]2O)[C@](C)(O)C[C@@H](C)/C(=N\OCOCCOC)[C@H](C)[C@@H](O)[C@]1(C)O
0.447

Please give measured growth inhibition of the following entry: CCN(CC)CCNC(=O)c1c(C)[nH]c(/C=C2\C(=O)Nc3ccc(F)cc32)c1C
-3.41

Please give measured growth inhibition of the following entry: COc1c(N2C[C@@H]3CCCN[C@@H]3C2)c(F)cc2c(=O)c(C(=O)O)cn(C3CC3)c12
0.935

Please give measured growth inhibition of the following entry: CN(C)[C@@H]1C(O)=C(C(=O)NCN2CCCC2)C(=O)[C@@]2(O)C(O)=C3C(=O)c4c(O)cccc4[C@@](C)(O)[C@H]3C[C@@H]12
0.0649

Please give measured growth inhibition of the following entry: Cc1ccc(C(=O)C(C)CN2CCCCC2)cc1 (stereo not given)
-0.938

Please give measured growth inhibition of the following entry: CC(=O)Oc1ccc(C(c2ccc(OC(C)=O)cc2)c2ccccn2)cc1
18.7

Please give measured growth inhibition of the following entry: CC(C)(C(=O)O)c1ccc(C(O)CCCN2CCC(C(O)(c3ccccc3)c3ccccc3)CC2)cc1 (stereo not given)
0.0574

###

Provide the reported growth inhibition of each item.
Tested on: DIPGX29 (H3.3 K27M diffuse intrinsic pontine glioma line)
Experiment: growth inhibition (% activity, log2 RLU normalised to DMSO / staurosporine); higher = more growth inhibition
Conditions: 33 µM
Number only, in %; omit the unit.

Please give measured growth inhibition of the following entry: CCCCCCCCCC(=O)NC1C(Oc2c3cc4cc2Oc2ccc(cc2Cl)C(OC2OC(CO)C(O)C(O)C2NC(C)=O)C2NC(=O)C(NC(=O)C4NC(=O)C4NC(=O)C(Cc5ccc(c(Cl)c5)O3)NC(=O)C(N)c3ccc(O)c(c3)Oc3cc(O)cc4c3)c3ccc(O)c(c3)-c3c(OC4OC(CO)C(O)C(O)C4O)cc(O)cc3C(C(=O)O)NC2=O)OC(CO)C(O)C1O (configuration not stated)
-0.31

Please give measured growth inhibition of the following entry: N[C@@H]1CCCCN(c2c(F)cc3c(=O)c(C(=O)O)cn(C4CC4)c3c2Cl)C1
-3.25

Please give measured growth inhibition of the following entry: C[C@]12C=CC(=O)C=C1CC[C@H]1[C@@H]3C[C@@H](O)[C@](O)(C(=O)CO)[C@@]3(C)C[C@H](O)[C@@]12F
0.877

Please give measured growth inhibition of the following entry: Nc1ccc(S(=O)(=O)Nc2ccccn2)cc1
0.131

Please give measured growth inhibition of the following entry: O=c1oc2cc(O)ccc2s1
1.14

Please give measured growth inhibition of the following entry: O=C(O)COCCN1CCN(C(c2ccccc2)c2ccc(Cl)cc2)CC1 (configuration not stated)
1.96

Please give measured growth inhibition of the following entry: Cc1cc2nc3c(=O)[nH]c(=O)nc-3n(C[C@H](O)[C@H](O)[C@H](O)CO)c2cc1C
-1.75
